Target: Lymnaea AChBP (Lymnaea stagnalis)
Sequence (P58154 20-229 limits assumed): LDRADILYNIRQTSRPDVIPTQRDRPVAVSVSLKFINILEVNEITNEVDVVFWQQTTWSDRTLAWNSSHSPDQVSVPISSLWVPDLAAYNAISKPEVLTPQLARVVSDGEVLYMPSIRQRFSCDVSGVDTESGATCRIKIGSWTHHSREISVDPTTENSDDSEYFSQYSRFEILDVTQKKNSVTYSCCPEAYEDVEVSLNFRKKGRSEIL
Assay: biochemical
Assay type: binding
# key: entry, value: k−1
Give the quantity in s⁻¹, number only.

Here's what some known entries look like.
CC[N+](CC)(CC)CCOc1cccc(OCC[N+](CC)(CC)CC)c1OCC[N+](CC)(CC)CC | 36
C[N+](C)(C)CCCCCCCCCC[N+](C)(C)C | 120
COc1cc2c3cc1Oc1cc(ccc1O)C[C@@H]1c4c(cc(OC)c(O)c4Oc4ccc(cc4)C[C@@H]3N(C)CC2)CC[N+]1(C)C | 30
CN1CCCC1c1cccnc1 (single isomer, unassigned; (-)) [(−)-Nicotine] | 5.7

Query compound follows.
Sure, the documented k−1 for Clc1ccc(C2CC3CCC2N3)cn1 (centres unmarked) [Epibatidine] is 0.027
